- assaySystem: Transcriptional activator Myb (Homo sapiens)
- assayMethodText: ATG_Myb_CIS: Attagene CIS-FACTORIAL HepG2 Assay for human Myeloblastosis (Myb) Proto-Oncogene Transcription Factor (AID 2282986)
- conditionSummary: HepG2 Attagene CIS-FACTORIAL Myb reporter transcription; actives raise or lower the signal
Activity calls are given as the source filed them. Rule for the calls: active = hit-call score of the fitted dose curve at least 0.9, where 1 is the maximum; inactive = score below 0.9.
Hello, when you answer, please use one of the following outcomes: active, inactive

Enquiry: I'd appreciate the recorded outcome for `O=C1C(Cl)=C(Cl)C(=O)C(Cl)=C1Cl` from this test.
Return: inactive

Enquiry: I'd appreciate the recorded outcome for `O=c1[nH]c(Cl)c(Cl)cc1Cl` from this test.
Return: inactive

Enquiry: I'd appreciate the recorded outcome for CN1C(=O)CCS(=O)(=O)C1c1ccc(Cl)cc1 (stereo unspecified) from this test.
Return: inactive

Enquiry: I'd appreciate the recorded outcome for `Oc1ccc(Cl)cc1` from this test.
Return: inactive

Enquiry: I'd appreciate the recorded outcome for `COC(=O)COc1ccc(Cl)cc1Cl` from this test.
Return: inactive

Enquiry: I'd appreciate the recorded outcome for `CC(C)(C)C(=O)CCl` from this test.
Return: inactive

Enquiry: I'd appreciate the recorded outcome for `ClCC(Cl)Cl` from this test.
Return: inactive

Enquiry: I'd appreciate the recorded outcome for `COC(=O)c1ccccc1S(=O)(=O)NC(=O)Nc1nc(C)cc(C)n1` from this test.
Return: inactive

###

- assayMethodText: ATG_BRE_CIS: Attagene CIS-FACTORIAL HepG2 Assay for human Bone Morphogenetic Protein (BMP) Response Element (BRE) (AID 2282933)
- conditionSummary: HepG2 BMP response element reporter, Attagene transcription factor profiling; actives raise or lower the signal
The source made the active and inactive calls. The calls were made as follows: active = hit-call score of the fitted dose curve at least 0.9, where 1 is the maximum; inactive = score below 0.9.
Hello, when you answer, please use one of the following outcomes: active, inactive

Solved entries (count: 3):
[[record]]
compound = "CC(=O)c1cc2c(cc1C)C(C)(C)C(C)CC2(C)C (stereo not drawn)"
cat = "active"

[[record]]
compound = "N#CCCCCC#N"
cat = "inactive"

[[record]]
compound = "ClCCCCCCCl"
cat = "inactive"


Enquiry: I'd appreciate the recorded outcome for `C=C(Cl)Cl` from this test.
Return: inactive

Enquiry: I'd appreciate the recorded outcome for `CN1C[C@H](C(=O)N[C@]2(C)O[C@@]3(O)[C@@H]4CCCN4C(=O)[C@H](Cc4ccccc4)N3C2=O)C=C2c3cccc4[nH]cc(c34)C[C@H]21` from this test.
Return: inactive

Enquiry: I'd appreciate the recorded outcome for `O=C(CCl)c1ccccc1` from this test.
Return: inactive

Enquiry: I'd appreciate the recorded outcome for `O=[N+]([O-])c1cc([N+](=O)[O-])c2ccccc2c1` from this test.
Return: inactive

Enquiry: I'd appreciate the recorded outcome for `O=C(O)CCCc1ccc(N(CCCl)CCCl)cc1` from this test.
Return: inactive

Enquiry: I'd appreciate the recorded outcome for `CCCCCCCCCCCCCCCC[N+](C)(C)C` from this test.
Return: inactive

Enquiry: I'd appreciate the recorded outcome for `CC(C)(O)C#N` from this test.
Return: inactive

Enquiry: I'd appreciate the recorded outcome for `COc1cc(OC)nc(Oc2cccc(Oc3nc(OC)cc(OC)n3)c2C(=O)O)n1` from this test.
Return: inactive

Enquiry: I'd appreciate the recorded outcome for `CCC(=O)c1ccc(Cl)cc1` from this test.
Return: inactive

Enquiry: I'd appreciate the recorded outcome for `N#Cc1cc(I)c(O)c(I)c1` from this test.
Return: inactive

###

- assaySystem: human Ephrin type-A Receptor 2 (EphA2), EPHA2 (gene 1969)
- assayMethodText: NVS_ENZ_hEphA2: NovaScreen (NVS) Enzymatic Assay for human Ephrin type-A Receptor 2 (EphA2) (AID 2283155)
Results filed as inconclusive are left out. Active and inactive are the calls of the source. Rule for the calls: active = hit-call score of the fitted dose curve at least 0.9, where 1 is the maximum; inconclusive = response in the unintended direction; inactive = score below 0.9.
Hello, when you answer, please use one of the following outcomes: active, inactive

[[record]]
molecule = "CC(C)(c1ccc(O)cc1)c1ccc(O)cc1"
cat = "inactive"


Enquiry: I'd appreciate the recorded outcome for `CCCCc1oc2ccccc2c1C(=O)c1cc(I)c(OCCN(CC)CC)c(I)c1` from this test.
Return: inactive

Enquiry: I'd appreciate the recorded outcome for `CCCCCCCCCCCCCC[P+](CCCC)(CCCC)CCCC` from this test.
Return: active

Enquiry: I'd appreciate the recorded outcome for CNS(=O)(=O)c1cc(C(=O)N2CCC(CCN3C4CCC3CC(n3c(C)nc5ccccc53)C4)(c3cccc(F)c3)CC2)c(Cl)cc1F (configuration not stated) from this test.
Return: inactive

Enquiry: I'd appreciate the recorded outcome for `Cc1ncc(CO)c(CO)c1O` from this test.
Return: inactive

Enquiry: I'd appreciate the recorded outcome for `CCN(CC)C(=S)SSC(=S)N(CC)CC` from this test.
Return: inactive

Enquiry: I'd appreciate the recorded outcome for `O=C(O)c1cccc(Oc2ccccc2)c1` from this test.
Return: inactive

Enquiry: I'd appreciate the recorded outcome for `N#CCCCCC#N` from this test.
Return: inactive

Enquiry: I'd appreciate the recorded outcome for `Cc1nc(-c2ccccn2)ncc1C(=O)Nn1cc(C)c2cc(F)ccc21` from this test.
Return: inactive

###

- assayMethodText: ATG_CMV_CIS: Attagene CIS-FACTORIAL HepG2 Assay for human CMV (Internal Marker) (AID 2282928);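 note: endpoint acts as a background internal control marker rather than a target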
- conditionSummary: HepG2 CMV promoter reporter, transcription factor profiling; actives raise or lower the signal
Active and inactive are the calls of the source. Rule for the calls: active = hit-call score of the fitted dose curve at least 0.9, where 1 is the maximum; inactive = score below 0.9.
Hello, when you answer, please use one of the following outcomes: 1 (yes) = active, 0 (no) = inactive

Solved entries (count: 2):
[[record]]
compound = "COc1cc(OC)c(OC)cc1C=O"
cat = "0 (no)"

[[record]]
compound = "c1ccc(P(c2ccccc2)c2ccccc2)cc1"
cat = "0 (no)"


Enquiry: I'd appreciate the recorded outcome for `O=C(O)CCl` from this test.
Return: 0 (no)

Enquiry: I'd appreciate the recorded outcome for `Oc1ccc(C2(c3ccc(O)cc3)c3ccccc3-c3ccccc32)cc1` from this test.
Return: 1 (yes)

Enquiry: I'd appreciate the recorded outcome for `CC(=O)/C=C/c1ccccc1` from this test.
Return: 0 (no)

Enquiry: I'd appreciate the recorded outcome for `S=c1[nH]c2ccccc2[nH]1` from this test.
Return: 0 (no)

Enquiry: I'd appreciate the recorded outcome for `Nc1ccc(-c2ccc(N)c(N)c2)cc1N` from this test.
Return: 0 (no)

Enquiry: I'd appreciate the recorded outcome for `O=[N+]([O-])O` from this test.
Return: 0 (no)

Enquiry: I'd appreciate the recorded outcome for `COc1cc(OC)nc(Oc2cccc(Oc3nc(OC)cc(OC)n3)c2C(=O)O)n1` from this test.
Return: 0 (no)

###

- assaySystem: Cellular tumor antigen p53 (Homo sapiens) (UniProt P04637)
- Sequence (P04637 whole entry, looked up): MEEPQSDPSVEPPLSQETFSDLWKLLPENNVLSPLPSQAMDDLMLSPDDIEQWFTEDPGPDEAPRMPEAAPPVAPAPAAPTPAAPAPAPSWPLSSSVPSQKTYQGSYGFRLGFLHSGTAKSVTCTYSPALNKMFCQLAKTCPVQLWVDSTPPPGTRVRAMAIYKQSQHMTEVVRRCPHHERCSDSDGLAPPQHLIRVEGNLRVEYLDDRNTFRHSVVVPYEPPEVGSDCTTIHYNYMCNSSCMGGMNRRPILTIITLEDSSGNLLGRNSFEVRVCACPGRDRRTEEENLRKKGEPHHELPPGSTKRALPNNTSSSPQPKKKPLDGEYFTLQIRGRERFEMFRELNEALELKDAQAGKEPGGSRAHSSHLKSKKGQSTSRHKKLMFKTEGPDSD
- assayMethodText: TOX21_p53_BLA_p2_ratio: Tox21 HCT-116 p53 Agonism Beta-lactamase Assay, Ratio, Phase 2 (AID 2283592)
Inconclusive results are not listed. Activity calls are given as the source filed them. Rule for the calls: active = hit-call score of the fitted dose curve at least 0.9, where 1 is the maximum; inconclusive = response in the unintended direction; inactive = score below 0.9.
Hello, when you answer, please use one of the following outcomes: class 1 = active, class 0 = inactive

[[record]]
molecule = "C=CCO"
assaysystem = "Cellular tumor antigen p53 (Homo sapiens) (UniProt P04637)"
cat = "class 0"


Enquiry: I'd appreciate the recorded outcome for `N=C(N)[Se]` from this test.
Return: class 0

Enquiry: I'd appreciate the recorded outcome for CC(CCc1ccccc1)NC(C)C(O)c1ccc(O)cc1 (stereo not drawn) from this test.
Return: class 0

###

- assaySystem: rat Adenylate Cyclase, Forskolin Stimulated, Adcy5 (gene 64532)
- assayMethodText: NVS_ENZ_rACFSKBinding: NovaScreen (NVS) Enzymatic Assay for rat Adenylate Cyclase, Forskolin Stimulated (AID 2283232)
Records with an inconclusive call do not appear. Active and inactive are the calls of the source. Rule for the calls: active = hit-call score of the fitted dose curve at least 0.9, where 1 is the maximum; inconclusive = response in the unintended direction; inactive = score below 0.9.
Hello, when you answer, please use one of the following outcomes: active, inactive

[[record]]
molecule = "Cc1occc(=O)c1O"
assaysystem = "rat Adenylate Cyclase, Forskolin Stimulated, Adcy5 (gene 64532)"
cat = "inactive"

[[record]]
molecule = "Nc1ccc(Nc2ccccc2)cc1"
assaysystem = "rat Adenylate Cyclase, Forskolin Stimulated, Adcy5 (gene 64532)"
cat = "active"

[[record]]
molecule = "N#CSCSc1nc2ccccc2s1"
assaysystem = "rat Adenylate Cyclase, Forskolin Stimulated, Adcy5 (gene 64532)"
cat = "active"

[[record]]
molecule = "CCN(CC)C(=S)SSC(=S)N(CC)CC"
assaysystem = "rat Adenylate Cyclase, Forskolin Stimulated, Adcy5 (gene 64532)"
cat = "active"

[[record]]
molecule = "O=c1[nH]sc2ccccc12"
assaysystem = "rat Adenylate Cyclase, Forskolin Stimulated, Adcy5 (gene 64532)"
cat = "active"


Enquiry: I'd appreciate the recorded outcome for `O=C(OC[C@H]1O[C@@H](OC(=O)c2cc(O)c(O)c(OC(=O)c3cc(O)c(O)c(O)c3)c2)[C@H](OC(=O)c2cc(O)c(O)c(OC(=O)c3cc(O)c(O)c(O)c3)c2)[C@@H](OC(=O)c2cc(O)c(O)c(OC(=O)c3cc(O)c(O)c(O)c3)c2)[C@@H]1OC(=O)c1cc(O)c(O)c(OC(=O)c2cc(O)c(O)c(O)c2)c1)c1cc(O)c(O)c(OC(=O)c2cc(O)c(O)c(O)c2)c1` from this test.
Return: inactive

Enquiry: I'd appreciate the recorded outcome for COCCOC[C@H](CC1(C(=O)NC2CCC(C(=O)O)CC2)CCCC1)C(=O)Oc1ccc2c(c1)CCC2 (some centres not stated) from this test.
Return: inactive
